- System Name: human glucagon receptor (GCGR), expressed on CHO-K1 cells (human, UniProt P47871 26-477)
- Sequence (P47871 26-477): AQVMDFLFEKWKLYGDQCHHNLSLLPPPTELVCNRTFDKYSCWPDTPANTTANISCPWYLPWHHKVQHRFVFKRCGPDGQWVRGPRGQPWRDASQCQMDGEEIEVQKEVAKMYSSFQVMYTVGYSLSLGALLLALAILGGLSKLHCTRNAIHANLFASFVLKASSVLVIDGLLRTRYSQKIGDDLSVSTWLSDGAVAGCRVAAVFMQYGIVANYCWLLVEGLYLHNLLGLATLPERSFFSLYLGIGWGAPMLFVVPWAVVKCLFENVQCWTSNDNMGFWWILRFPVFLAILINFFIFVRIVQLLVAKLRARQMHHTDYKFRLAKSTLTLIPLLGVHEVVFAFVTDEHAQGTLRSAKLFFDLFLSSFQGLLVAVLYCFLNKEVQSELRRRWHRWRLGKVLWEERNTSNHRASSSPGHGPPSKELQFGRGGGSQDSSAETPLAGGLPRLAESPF
- Test: cell-based or functional assay
Numbered stars: 1 amine (or outer) side, 2 acyl side, 3 side chain; on linkers, the order of the positions; unused ones are H or OH. Square brackets hold non-standard residues; d marks the D form. Side chains are listed from the residue outwards. Ends that are not written are not given here. C18 = C18 fatty acid (C16-C22 fatty acids conjugated via γGlu/8-amino-3,6-dioxaoctanoic acid spacers); methoxinine = methoxinine (m*), COCC[C@H](N[*:1])C(=O)[*:2]; γGlu = O=C(O)[C@H](CCC(=O)[*:2])N[*:1]; AEEA = NCCOCCOCC(=O)O; Aib = CC(C)(N)C(=O)O
// reported Ratio vs. GLP-1R for each item listed

Examples from the recorded data:
>  <Binder>
Y[Aib]QGTFTSDYSK([AEEA-AEEA-γGlu-C18])LLDYMMQ[Aib]DFVQWLLEGGPSSGAPPPS-NH2 [SEQ ID NO. 84]

>  <Ratio vs. GLP-1R>
28

$$$$
>  <Binder>
Y[Aib]QGTFTSDYSK([AEEA-AEEA-γGlu-C18])LLDY[methoxinine][methoxinine]QRDFVQWLLEGGPSSGAPPPS-NH2 [SEQ ID NO. 96]

>  <Ratio vs. GLP-1R>
10

$$$$
>  <Binder>
Y[Aib]QGTFTSDYSK([AEEA-AEEA-γGlu-C18])LLDYMMQRDFVKWLLEGGPSSGAPPPS-NH2 (not fully specified (residue 24); printed as YAibQGT FTSDY SK*LLD YMMQR DFVB*W LLEGG PSSGA PPPS) [SEQ ID NO. 89]

>  <Ratio vs. GLP-1R>
117

$$$$

Lab note: next binder to report on.
Ask: For the binder shown here, Y[Aib]QGTFTSDYSK([AEEA-AEEA-γGlu-C18])LLDYMMQ[Aib]DFVQYLLEGGPSSGAPPPSK-NH2 (not fully specified (residue 40)) [SEQ ID NO. 92] , give the reported Ratio vs. GLP-1R.
Reply: 243

Data origin, for the record: patent US20250296960A1
